The measured values listed here are drawn from PubChem BioAssay AID1996.

settings: buffer; pH 7.4; 200.0 µM
solubility kinetic class ranges: A (below 10 µg/mL), B (10 µg/mL to below 50 µg/mL), C (50 µg/mL or more)

Compound	Class name
Cc1ccccc1-n1c(O)c(/C=N/NC(=O)c2ccncc2)c(=O)[nH]c1=O	C
Br.C(CCCN1CCCCC1)CCN1CCCCC1	C
Cc1ccccc1OCc1nc(C#N)c(N2CCCC2)o1	B

Prompt line: Bin this entry: Cc1ccc(CCNC(=O)C2CCC(=O)N2CCc2ccccc2)cc1 (stereo not drawn)
Response line: B

----------
conditions: buffer; pH 7.4; 200.0 µM
As shown below, each of these compounds has a reported solubility kinetic value.

Record CC(C(=O)Nc1cc(Cl)cc(Cl)c1)N1CCCC1 (stereo not drawn) . Reported solubility kinetic: > 43.1 µg/mL

Lookup result for CCN(CC)C(=S)Nc1ccc(C(=O)OC)cc1 ; measured solubility kinetic: > 40 µg/mL

Consider O=C(CCc1ccccc1)NCc1ccncc1 . Its measured solubility kinetic is > 36 µg/mL

The compound listed as Cc1nn(C)c(Cl)c1CN1CCN(CCC(C)C)C(CCO)C1 (stereo not drawn) shows solubility kinetic equal to > 51.4 µg/mL

Entry under test: O=C(NNC(=S)NC(=O)c1cccs1)c1cccnc1 . Its solubility kinetic was > 46 µg/mL

Looking up O=C(COC(=O)CN1C(=O)C2CCCCC2C1=O)Nc1ccc(F)c(F)c1F (stereo not drawn) , I found its solubility kinetic recorded as > 59.8 µg/mL

Note to self: solubility kinetic recorded for Nc1cc(=O)[nH]c(SCC(=O)NCCC2=CCCCC2)n1 was > 46.3 µg/mL

Looking up Nc1cc(=O)[nH]c(SCC(=O)Nc2ccc(N3CCOCC3)cc2)n1 , I see its solubility kinetic listed as > 54.2 µg/mL

Looking up Nc1nc(-c2ccc(Oc3ccccc3)cc2)c(CC(=O)O)s1 , I see its solubility kinetic listed as > 49 µg/mL

----------
conditions: buffer; pH 7.4; 200.0 µM
Each entry below lists one item and its recorded solubility kinetic value.

Consider the reported solubility kinetic for these compounds:
Compound	Outcome measure	Result
CCN1CCN(C(=O)c2cc3cc(Cl)ccc3[nH]2)CC1	solubility kinetic	> 43.8 µg/mL
CC1CCC(NC(=O)CCNS(=O)(=O)c2ccccc2)CC1 (centres undefined)	solubility kinetic	> 48.7 µg/mL

Item: O=C(CCc1ccccc1)NCC1OCCc2ccccc21 (centres undefined) | solubility kinetic: > 44.3 µg/mL

Measured solubility kinetic, Cc1cc(OCC(=O)NC2CC2)c2c(C)cc(=O)oc2c1 : > 43.1 µg/mL

Entry under test: CCOC(=O)c1cn2nc(N3CCCCC3)ccc2n1 . Its solubility kinetic was > 41.1 µg/mL

Sample O=C(Nc1ccc(S(=O)(=O)Nc2ncccn2)cc1)C12CC3CC(CC(Cl)(C3)C1)C2 ; solubility kinetic observed: > 67 µg/mL

----------
# solubility kinetic values compiled below
conditions: buffer; pH 7.4; 200.0 µM

Compound	Outcome measure	Result
O=C(CN1C(=O)NC2(CCOc3ccccc32)C1=O)NCc1ccccc1 (configuration not stated)	solubility kinetic	> 54.8 µg/mL

The reported solubility kinetic of the compound Cc1ccnc(N/C=C/C(=O)c2ccc(Br)cc2)c1 was < 0.3 µg/mL

----------
conditions: buffer; pH 7.4; 200.0 µM
Outcome measure: solubility kinetic

Compound	solubility kinetic
CCC(C)NC(=O)C1CCN(S(=O)(=O)N2CCOCC2)CC1 (stereo unspecified)	> 50 µg/mL
COc1cccc(C(=O)C2CN(C)CC2c2ccc(Cl)cc2)c1 (stereo unspecified)	> 49.5 µg/mL
O=C(COC(=O)c1ccc([N+](=O)[O-])o1)Nc1ncc(Cl)cc1Cl	> 54 µg/mL
CCN1CCN(S(=O)(=O)Cc2ccccc2Cl)CC1	> 45.4 µg/mL
O=C(COc1ccccc1)NCCc1cnc[nH]1	> 36.8 µg/mL

Now for a further compound.
For reference, reported solubility kinetic for O=C(Cc1ccc(F)cc1)N1CCN(c2ccc(F)cc2)CC1 stands at > 47.5 µg/mL

----------
conditions: buffer; pH 7.4; 200.0 µM
Let's look at some compounds and their measured solubility kinetic.
Write the number in µg/mL without appending the unit.

Compound	solubility kinetic [µg/mL]
Cc1cc(/C=C2/C(=O)NC(=O)N(C)C2=O)c(C)n1-c1ccccc1	1.1
S=C(NCc1ccccc1)NCc1cccc(Cl)c1	23.2
O=C(COC(=O)c1cccc([N+](=O)[O-])c1)NCc1cccs1	36
O=C(CNC(=O)c1ccco1)NCc1ccc2c(c1)OCO2	34.6
CC(NC(=O)NC(=O)c1cccc([N+](=O)[O-])c1)C1CC1 (stereo unspecified)	3.8

Entry Cc1ccc(/C=C2\CCn3c2nc2cc(C(=O)O)ccc2c3=O)c(C)c1 — recorded solubility kinetic = 45.7

----------
details: buffer; pH 7.4; 200.0 µM
The label depends only on solubility kinetic: y if it is at least 7 µg/mL, n if it is smaller.

Compound	Class name
COc1ccc(C(=O)Nc2ccc(NC(=O)C3CC3)cn2)cc1	n

Prompt line: Tell me whether solubility kinetic is at least 7 µg/mL here: O=C(Cc1ccccc1)Nc1ccc(NC(=O)c2cccnc2)cc1
Response line: n

Prompt line: Would you say COC(=O)c1ccc(CNC(=O)COC(=O)c2cccs2)cc1 shows solubility kinetic at minimum 7 µg/mL?
Response line: y

----------
Consider the following compounds and their measured solubility kinetic readings.
details: buffer; pH 7.4; 200.0 µM

Compound	solubility kinetic
COc1ccc(S(=O)(=O)N(C)CC(=O)N2CCCC2)cc1	> 46.9 µg/mL
CCCCNC(=O)NS(=O)(=O)c1ccc(C)cc1	> 40.6 µg/mL
CC(NC(=O)CCNC(=O)c1ccco1)c1ccc(F)cc1 (configuration not stated)	> 45.6 µg/mL

Form field solubility kinetic, entry O=C1CCC([N+](=O)[O-])C(c2ccccc2C(F)(F)F)N1 (configuration not stated) : > 43.2 µg/mL

Short answer for C=C(C)C(=O)Nc1cccnc1Oc1ccc(F)cc1 : solubility kinetic was > 40.8 µg/mL

# solubility kinetic (compound: O=C(NCc1ccc(F)cc1)c1cccnc1 ) is > 34.5 µg/mL

Lab book: solubility kinetic of CC(C)(C)C(=O)Cn1c(NCCCl)nc2ccccc21.Cl noted as > 49.5 µg/mL

For Nc1ccccc1C(=O)N1CCc2ccccc21 the compound record lists solubility kinetic as > 35.7 µg/mL

Memo: Cn1c(O)c(C=NCCN2CCOCC2)c(=O)n(C)c1=S , reported solubility kinetic: > 46.9 µg/mL

response.value for CCOc1ncnc2c1sc1nc(C)cc(C)c12 (field: solubility kinetic) = < 0.2 µg/mL

----------
details: buffer; pH 7.4; 200.0 µM
Outcome measure: solubility kinetic

Check out these entries, answers already filled in.
Molecule	solubility kinetic
Cc1ccsc1C(=O)OCC(=O)Nc1nnc(-c2ccccc2)o1	> 51.5 µg/mL
CN(CC(=O)NCc1cccnc1)S(=O)(=O)c1ccc(F)cc1	> 50.6 µg/mL
O=C(O)Cn1cc(/C=N/Nc2ccc([N+](=O)[O-])cn2)c2ccccc21	> 50.9 µg/mL
CC(C)CNC(=O)C(=O)NCC1OCCCN1S(=O)(=O)c1cccs1 (centres undefined)	> 58.4 µg/mL
COc1ccc(CCNC(=O)c2cc(C3CC3)on2)cc1OC	> 47.5 µg/mL

Reported solubility kinetic for Clc1cc(NC2CCCCC2)ncn1 was > 31.8 µg/mL

CC(=O)O.O=C(NCC1CCCCN1)c1cc(OCC(F)(F)F)ccc1OCC(F)(F)F (centres undefined) has a reported solubility kinetic of > 71.2 µg/mL

// recorded solubility kinetic for CC(C)(C)NC(=O)COc1ccc(S(=O)(=O)N2CCCC2)cc1 : > 51.1 µg/mL

solubility kinetic in this record for COc1ccc(CNC(=O)C(=O)NC2CC(C)(C)NC(C)(C)C2)cc1 : > 52.1 µg/mL

----------
conditions: buffer; pH 7.4; 200.0 µM
# binarize solubility kinetic: threshold 30 µg/mL inclusive, high side condition met, low side condition not met

Compound	Class name
CCOc1ccc(C(=O)CCC(=O)NC(C)C(=O)OC)cc1 (stereo not given)	condition met
Cc1ccc(NC(=O)CN2CCN(Cc3ccccc3)CC2)cc1	condition met
Cc1nn(CC(=O)c2ccc(Cl)s2)c(C)c1[N+](=O)[O-]	condition met

Prompt line: Has O=C(CN1CCN(Cc2ccccc2Cl)CC1)N/N=C/c1ccccn1 a recorded solubility kinetic greater than or equal to 30 µg/mL?
Response line: condition met

Prompt line: Check this compound for solubility kinetic at or above 30 µg/mL: COc1cc(CN=C(C)c2c(O)n(C3CCCCC3)c(=O)[nH]c2=O)cc(OC)c1
Response line: condition not met

Prompt line: Please check the record CCOc1ccc(CCN2CN(CC)CNC2=S)cc1OCC and state if its solubility kinetic is at or above 30 µg/mL.
Response line: condition met

Prompt line: Could you please find out whether CN(C)c1cccc2c(C#N)ccc(N(C)C)c12 has solubility kinetic that meets 30 µg/mL or exceeds it?
Response line: condition not met

Prompt line: For this compound, is measured solubility kinetic 30 µg/mL or higher? O=C(O)CC1(CC(=O)NCc2ccccn2)CCCCC1
Response line: condition met

Prompt line: Check the entry O=C(CNS(=O)(=O)c1ccccc1)N1CCCC1 : does solubility kinetic equal or exceed 30 µg/mL?
Response line: condition met

Prompt line: # bool: solubility kinetic of O=C(CSc1ccccn1)NC1CCCC1 >= 30 µg/mL
Response line: condition met

Prompt line: Form field: solubility kinetic at least 30 µg/mL? Entry: CC(=O)C(c1ccccc1)C(c1ccccc1)C(C)[N+](=O)[O-] (stereo not given)
Response line: condition not met

Prompt line: Determine whether this compound has solubility kinetic no lower than 30 µg/mL: CCCCN(CCCC)CCCOC(=O)c1ccc(N)cc1
Response line: condition met

Prompt line: Does the compound CC(N)Cc1c[nH]c2c1ccc1ccccc12.Cl (stereo not given) have recorded solubility kinetic that is 30 µg/mL or more?
Response line: condition met

Prompt line: Test whether the compound Fc1ccc(NCc2nnc3n2CCCCC3)cc1 records solubility kinetic of 30 µg/mL or higher.
Response line: condition met
